# assay.details: ATG_ISRE_CIS: Attagene CIS-FACTORIAL HepG2 Assay for human Interferon Regulatory Factor 1 (IRF1) binding to an Interferon-Stimulated Response Element (ISRE) (AID 2282948)
# measurement.context: HepG2 ISRE cis-reporter (Attagene), mRNA transcription readout; actives raise or lower the signal
Activity calls are given as the source filed them. How the source made its calls: active means hit-call score of the fitted dose curve at least 0.9, where 1 is the maximum; inactive means score below 0.9.
observed.property: AC50

OCC(F)(F)C(F)(F)C(F)(F)F = inactive
C(=C(c1ccccc1)c1ccccc1)c1ccccc1 = inactive
FC(F)(F)C(F)(F)C(F)(F)CI = inactive
COC(=O)CCC(F)(F)C(F)(F)C(F)(F)C(F)(F)F = inactive
O=S(=O)(O)C(F)(F)C(F)(F)C(F)(F)C(F)(F)C(F)(F)C(F)(F)C(F)(F)F = inactive
Nc1cc(Cl)c(N)c(Cl)c1 = inactive
NC(=O)C(F)(F)C(F)(F)C(F)(F)C(F)(F)F = inactive
FC(F)(F)C(F)(F)C(F)(F)C(F)(F)C(F)(F)C(F)(F)C(F)(F)I = inactive

Hello, I would appreciate it if you could give AC50 for each entry below.
1. OC[C@@H](O)[C@@H](O)[C@H](O)[C@@H](O)CO
2. FC(F)(F)C(F)(F)C(F)(F)C(F)(F)C(F)(F)C(F)(F)C(F)(F)C(F)(F)F
3. c1ccc(B(c2ccccc2)c2ccccc2)cc1
4. [Co]
5. O=C(Cl)C(F)(F)C(F)(F)C(F)(F)C(F)(F)C(F)(F)C(F)(F)C(F)(F)C(F)(F)F
6. Nc1ccc(Oc2cccc(Oc3ccc(N)cc3)c2)cc1

Reply |
["inactive", "inactive", "inactive", "inactive", "33.4 µM (active)", "24.7 µM (active)"]

----------
# Read-out: Tissue Factor, F3 (gene 2152)
# assay.details: BSK_LPS_TissueFactor: BioMAP Diversity Plus: LPS Assay for Tissue Factor Biomarker Activity (AID 2283084)
# measurement.context: primary human HUVEC with PBMC; actives raise or lower the signal
Activity calls are given as the source filed them. Rule for the calls: active = hit-call score of the fitted dose curve at least 0.9, where 1 is the maximum; inactive = score below 0.9.
Respond only with the outcome that fits, drawn from active, inactive

Consider the following illustrative entries.
FC1CC(F)(F)C(F)(F)C1(F)F (stereo not drawn) = inactive
FC(F)(I)C(F)(F)C(F)(F)C(F)(F)I = inactive
C=CC(F)(F)C(F)(F)C(F)(F)C(F)(F)C(F)(F)C(F)(F)C(F)(F)C(F)(F)F = inactive
CCCCCCCCC(F)(F)C(F)(F)C(F)(F)C(F)(F)C(F)(F)C(F)(F)F = inactive
O=S(=O)(O)C(F)(F)C(F)(F)C(F)(F)C(F)(F)C(F)(F)C(F)(F)C(F)(F)F = inactive
O=C(O)C(F)(F)C(F)(F)C(F)(F)C(F)(F)C(F)(F)C(F)(F)C(F)(F)C(F)(F)Cl = inactive

Ask | Status in this test for CCCCCCCCCCCCCCCC[N+](C)(C)Cc1ccccc1 ?
Reply | active

Ask | Status in this test for CCO[Si](CCC(F)(F)C(F)(F)C(F)(F)C(F)(F)C(F)(F)C(F)(F)F)(OCC)OCC ?
Reply | inactive

Ask | Status in this test for O=C(O)C(F)(F)C(F)(F)C(F)(F)F ?
Reply | inactive

Ask | Status in this test for C=C(C)C(=O)OCC(F)(F)C(F)(F)C(F)(F)C(F)(F)C(F)(F)C(F)(F)C(F)(F)F ?
Reply | inactive

Ask | Status in this test for O=S(=O)(OCCOC(F)(F)F)C(F)(F)F ?
Reply | inactive

Ask | Status in this test for CC(C)(C)C(=O)CC(=O)C(F)(F)C(F)(F)C(F)(F)F ?
Reply | inactive

Ask | Status in this test for CCCCCCCOC(=O)c1ccccc1C(=O)OCCCCCCC ?
Reply | inactive

Source listed as PubChem BioAssay (EPA / NIEHS).
